B1: INTS4 (parent)
chain: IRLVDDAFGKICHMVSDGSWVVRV

Variants of: B1
assay summary: protein stability index of a GFP-peptide fusion (GPS, HEK-293T) (PSI 1-6); higher = more stable;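 note: lentivirally expressed fusions sorted by FACS into six bins by GFP to DsRed ratio, PSI derived from sequencing read proportions per bin multiplied by bin number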
cond: c terminus: a fixed tail appended
endpoint name: protein stability index
Response field accepts a number only; no unit should be typed.

State its protein stability index: V24R
3.03

Assign protein stability index to the following record: W20I
2.89

Complete the entry with protein stability index for V21Y
4.71

Read the entry G18F and write its reported protein stability index.
2.29

Note down protein stability index recorded for D5G
3.16

Output protein stability index of F8I
2.78

Give me measured protein stability index, please, for this variant: V22W
2.35

Please report protein stability index for the following variant: D5C
3.07

Answer with reported protein stability index of M14Y
1.64

Answer with the recorded protein stability index of V21T only.
2.18

For V21K , write its protein stability index.
3.29

Quote protein stability index reported for R23L please.
4.2

Give the measured protein stability index for S16R
2.56

Consider the variant V24W and give its recorded protein stability index.
1.57

// fetch protein stability index given entry G18M
1.8

Determine from records and report protein stability index for S19K
2.25

Please look at this variant and report its protein stability index: D17N
2.41

Tell me its protein stability index given F8E as the entry.
3.82

Determine from records and report protein stability index for K10C
3.27

Note protein stability index for the variant shown: W20A
3.43

Give recorded protein stability index. C12R
4.2

Tell me its protein stability index given V4F as the entry.
2.26

Give me measured protein stability index, please, for this variant: I1H
3.54

Indicate its recorded protein stability index; the variant in question is W20R
2.79

Output measured protein stability index for this item: V24S
2.31

Output protein stability index of D17W
2.22

Please report the measured protein stability index for S19T
3.28

Read the entry V24C and write its reported protein stability index.
2.68

Consider the variant V15T . State its measured protein stability index.
3.2

// Input: D17P . Output its protein stability index only.
2.05

Read the entry I11C and write its reported protein stability index.
2.87

Respond only with protein stability index recorded for G18E
2.57

Look up protein stability index of G9Y and report it.
3.11

Determine its reported protein stability index: F8M
2.69

Answer with the recorded protein stability index for the variant listed here: D6N
4.84

Retrieve protein stability index measured for F8D and print it.
4.44

Supply protein stability index value. Item: D17R
2.02

Supply protein stability index value. Item: H13D
3.12

// Input: S16I . Output its protein stability index only.
2.59

Could you please provide reported protein stability index for A7D ? Thanks!
2.86

Kindly indicate its recorded protein stability index. Item: W20L
2.83

Identify measured protein stability index associated with R23D
2.15

Query protein stability index for V24M
1.46

Return reported protein stability index. Input variant: D5R
1.8

Quick one: give measured protein stability index for A7L
3.62

Tell me its protein stability index given G18N as the entry.
2.01

Entry source: the supplement of paper PMC10567573
